Molecular target: Hsp90 (Saccharomyces cerevisiae, UniProt P02829)
Construct: made in house
Test: ITC, LA1011 binding to nucleotide-free Hsp90
Parameters: species or system yeast
Conditions: ITC 30 °C, 2 mM LA1011 injected into 30 μM Hsp90; 2:1 (Hsp90:LA1011) stoichiometric fit; read-out: Kd (2:1)
Measured Attribute: pKd
// pKd: -log10(molar conc.)

Query pKd on Hsp90 (Saccharomyces cerevisiae, UniProt P02829) for COC(=O)C1=C(CCN(C)C)N(C)C(CCN(C)C)=C(C(=O)OC)C1c1ccc(C(F)(F)F)cc1.Cl.Cl
4.54

----------
Target: Hsp90-CDC37 (Saccharomyces cerevisiae, UniProt P02829)
Construct: made in house
Sequence (P02829 whole entry): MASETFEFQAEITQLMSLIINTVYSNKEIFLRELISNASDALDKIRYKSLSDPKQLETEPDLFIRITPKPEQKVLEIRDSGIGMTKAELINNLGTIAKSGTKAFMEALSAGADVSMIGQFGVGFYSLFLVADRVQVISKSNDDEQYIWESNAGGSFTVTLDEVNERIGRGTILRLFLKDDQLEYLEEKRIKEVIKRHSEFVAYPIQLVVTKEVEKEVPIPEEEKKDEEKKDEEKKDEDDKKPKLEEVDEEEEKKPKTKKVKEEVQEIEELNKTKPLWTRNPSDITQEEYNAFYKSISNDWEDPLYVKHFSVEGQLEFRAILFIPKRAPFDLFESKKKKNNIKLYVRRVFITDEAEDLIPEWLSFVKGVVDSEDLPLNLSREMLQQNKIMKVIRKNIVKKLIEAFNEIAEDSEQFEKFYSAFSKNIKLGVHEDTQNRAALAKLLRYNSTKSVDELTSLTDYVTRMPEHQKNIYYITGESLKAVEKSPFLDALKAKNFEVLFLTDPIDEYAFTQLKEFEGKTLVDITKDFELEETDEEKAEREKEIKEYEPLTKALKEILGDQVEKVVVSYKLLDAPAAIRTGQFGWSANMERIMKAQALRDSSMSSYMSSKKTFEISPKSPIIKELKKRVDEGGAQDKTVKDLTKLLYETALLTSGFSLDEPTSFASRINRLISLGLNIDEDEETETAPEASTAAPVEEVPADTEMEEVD
Sequence (Q16543 whole entry partner): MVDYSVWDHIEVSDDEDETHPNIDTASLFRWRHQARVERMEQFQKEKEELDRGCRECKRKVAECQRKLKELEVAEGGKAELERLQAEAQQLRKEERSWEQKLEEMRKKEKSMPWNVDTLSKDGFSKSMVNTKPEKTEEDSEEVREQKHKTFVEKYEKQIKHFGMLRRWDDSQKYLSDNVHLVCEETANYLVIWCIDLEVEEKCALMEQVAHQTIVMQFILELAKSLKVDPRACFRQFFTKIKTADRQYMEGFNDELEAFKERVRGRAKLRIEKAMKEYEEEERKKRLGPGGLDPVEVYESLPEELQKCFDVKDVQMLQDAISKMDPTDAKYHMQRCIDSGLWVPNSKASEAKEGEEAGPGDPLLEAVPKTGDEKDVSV
Test: ITC, LA1011 binding to Hsp90-CDC37 complex
Set-up: species or system yeast
Details: 20 μM Hsp90, 40 μM CDC37, 2:1 fit, read-out: Kd (2:1)
Measured Attribute: Kd (µM)
// return numeric value only (unit: µM, not printed)

Record request: Kd value, item COC(=O)C1=C(CCN(C)C)N(C)C(CCN(C)C)=C(C(=O)OC)C1c1ccc(C(F)(F)F)cc1.Cl.Cl
9.5
